Tested on: TK-10 renal
experimental protocol: NCI tumour cell line growth inhibition, 48 h; in the data active means GI50 below about 0.43 µM; inactive means the rest
Select the matching outcome among active, inactive

C=C(C)[C@@H]1CC[C@]2(C(=O)OC)CC[C@]3(C)[C@H](CC[C@@H]4[C@@]5(C)CC/C(=N\OCCC(=NCCC#N)NOCCC#N)C(C)(C)[C@@H]5CC[C@]43C)[C@@H]12    inactive
O=C(CNC(=O)c1cccc2ccccc12)Nc1ccccc1Oc1ccc(O)cc1    inactive

**Q:** Field: outcome | Entry: `C=C(CN1CCc2ccccc2C1)c1ccc(C(=O)Nc2cccc(N)c2)cc1`
**A:** inactive

----------
System: NCI/ADR-RES ovarian
experimental protocol: NCI tumour cell line growth inhibition, 48 h
Listing: GI50 of selected compounds

Would you please look over these solved cases?
N#CSc1c[nH]c2cccc(/C=C/C(=O)/C=C(O)/C=C/c3cccc4[nH]cc(SC#N)c34)c12    2.72 µM
CCOc1ccc(-c2nc3ccc(-c4nc5ccc(N6CCN(C)CC6)cc5[nH]4)cc3[nH]2)cc1OCC    > 100 µM
CCCCCCCCCCCCNC(=O)N[C@H](C(=O)N[C@H]1/C=C/OCCNC(=O)/C=C/[C@H](C(C)C)NC1=O)C(C)C    > 100 µM

**Q:** Quick one: GI50 of `CNC(=S)N/N=C/CSC/C=N/NC(=S)NC` ?
**A:** > 100 µM

**Q:** Same for COc1ccc2c(c1)OCC1c3cc(OC)ccc3OC21 (stereo not given)
**A:** 32 µM

Reference source: PubChem BioAssay (NCI)
